In this section, each of the compounds is paired with its reported remaining activity at 1 µM.
Target: panel of 442 kinases (Homo sapiens, UniProt P54753)
Construct: purchased Ambit Biosciences (scanMAXX KINOMEscan)
Sequence (P54753 34-998): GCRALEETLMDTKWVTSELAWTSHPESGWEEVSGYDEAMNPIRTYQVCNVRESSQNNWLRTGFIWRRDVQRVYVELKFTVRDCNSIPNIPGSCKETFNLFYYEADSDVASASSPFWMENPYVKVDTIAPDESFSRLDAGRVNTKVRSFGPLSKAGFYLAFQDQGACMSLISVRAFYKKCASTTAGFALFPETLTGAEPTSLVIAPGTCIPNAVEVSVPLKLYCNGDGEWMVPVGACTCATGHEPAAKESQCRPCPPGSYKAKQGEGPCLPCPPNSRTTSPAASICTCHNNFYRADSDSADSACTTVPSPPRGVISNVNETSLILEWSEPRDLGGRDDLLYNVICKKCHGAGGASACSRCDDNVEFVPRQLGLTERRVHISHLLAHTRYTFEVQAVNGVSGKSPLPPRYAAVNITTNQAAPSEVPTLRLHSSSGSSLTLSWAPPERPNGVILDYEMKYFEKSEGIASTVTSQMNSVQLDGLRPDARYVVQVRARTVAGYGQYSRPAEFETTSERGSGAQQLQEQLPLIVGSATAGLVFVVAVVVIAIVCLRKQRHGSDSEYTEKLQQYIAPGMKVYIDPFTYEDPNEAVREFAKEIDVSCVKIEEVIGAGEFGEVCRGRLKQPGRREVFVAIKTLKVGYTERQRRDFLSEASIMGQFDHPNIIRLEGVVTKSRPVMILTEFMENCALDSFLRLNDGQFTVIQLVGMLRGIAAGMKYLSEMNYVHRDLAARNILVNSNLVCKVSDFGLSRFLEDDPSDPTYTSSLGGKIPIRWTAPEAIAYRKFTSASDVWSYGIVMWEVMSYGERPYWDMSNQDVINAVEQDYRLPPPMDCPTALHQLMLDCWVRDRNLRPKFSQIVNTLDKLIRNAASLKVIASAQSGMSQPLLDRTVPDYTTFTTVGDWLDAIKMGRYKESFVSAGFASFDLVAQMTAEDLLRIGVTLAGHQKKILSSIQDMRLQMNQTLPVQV
Test: biochemical
Assay type: binding
Conditions: EPHB3; 1 µM; read-out: % of control at 1 µM
REPORTED METRIC: remaining activity at 1 µM

FC(F)c1nc2ccccc2n1-c1nc(N2CCOCC2)nc(N2CCOCC2)n1	56%
COc1ncc(-c2ccc3nccc(-c4ccnnc4)c3c2)cc1NS(=O)(=O)c1ccc(F)cc1F	100%
Nc1cc(C(F)(F)F)c(-c2cc(N3CCOCC3)nc(N3CCOCC3)n2)cn1	91%
Cn1c(=O)n(-c2ccc(C(C)(C)C#N)cc2)c2c3cc(-c4cnc5ccccc5c4)ccc3ncc21	70%

###

Molecular target: panel of 442 kinases (Homo sapiens, UniProt P46734)
Construct: purchased Ambit Biosciences (scanMAXX KINOMEscan)
Sequence (P46734 whole entry): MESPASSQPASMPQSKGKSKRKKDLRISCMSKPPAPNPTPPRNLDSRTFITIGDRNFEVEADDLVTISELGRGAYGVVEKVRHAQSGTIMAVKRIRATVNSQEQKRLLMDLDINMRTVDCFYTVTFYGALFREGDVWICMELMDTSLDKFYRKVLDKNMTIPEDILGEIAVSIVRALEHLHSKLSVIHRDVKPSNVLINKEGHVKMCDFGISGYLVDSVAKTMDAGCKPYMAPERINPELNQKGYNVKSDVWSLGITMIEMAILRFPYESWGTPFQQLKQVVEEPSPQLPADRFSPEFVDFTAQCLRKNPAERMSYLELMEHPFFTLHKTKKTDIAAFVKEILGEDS
Assay: biochemical
Format: binding
Details: kinase MEK3; 1 µM; read-out: % of control at 1 µM
REPORTED METRIC: remaining activity at 1 µM (%)

Cn1c(=O)n(-c2ccc(C(C)(C)C#N)cc2)c2c3cc(-c4cnc5ccccc5c4)ccc3ncc21	96
COc1ncc(-c2ccc3nccc(-c4ccnnc4)c3c2)cc1NS(=O)(=O)c1ccc(F)cc1F	46
FC(F)c1nc2ccccc2n1-c1nc(N2CCOCC2)nc(N2CCOCC2)n1	100
Nc1cc(C(F)(F)F)c(-c2cc(N3CCOCC3)nc(N3CCOCC3)n2)cn1	100

###

remaining activity at 1 µM by entry:
Target: panel of 442 kinases (Homo sapiens)
Construct: purchased Ambit Biosciences (scanMAXX KINOMEscan)
Assay: biochemical
Type: binding
Conditions: ACVR1B; 1 µM; read-out: % of control at 1 µM
REPORTED METRIC: remaining activity at 1 µM (%)

COc1ncc(-c2ccc3nccc(-c4ccnnc4)c3c2)cc1NS(=O)(=O)c1ccc(F)cc1F [Omipalisib]	100
Cn1c(=O)n(-c2ccc(C(C)(C)C#N)cc2)c2c3cc(-c4cnc5ccccc5c4)ccc3ncc21 [Dactolisib]	100
Nc1cc(C(F)(F)F)c(-c2cc(N3CCOCC3)nc(N3CCOCC3)n2)cn1 [Buparlisib]	87
FC(F)c1nc2ccccc2n1-c1nc(N2CCOCC2)nc(N2CCOCC2)n1 [ZSTK474]	60

###

Measured remaining binding at 1 µM values are reported for all entries that follow.
Biological target: CLK2 (Homo sapiens, UniProt P49760)
Construct: purchased Ambit Biosciences (scanMAXX KINOMEscan)
Sequence (P49760 whole entry): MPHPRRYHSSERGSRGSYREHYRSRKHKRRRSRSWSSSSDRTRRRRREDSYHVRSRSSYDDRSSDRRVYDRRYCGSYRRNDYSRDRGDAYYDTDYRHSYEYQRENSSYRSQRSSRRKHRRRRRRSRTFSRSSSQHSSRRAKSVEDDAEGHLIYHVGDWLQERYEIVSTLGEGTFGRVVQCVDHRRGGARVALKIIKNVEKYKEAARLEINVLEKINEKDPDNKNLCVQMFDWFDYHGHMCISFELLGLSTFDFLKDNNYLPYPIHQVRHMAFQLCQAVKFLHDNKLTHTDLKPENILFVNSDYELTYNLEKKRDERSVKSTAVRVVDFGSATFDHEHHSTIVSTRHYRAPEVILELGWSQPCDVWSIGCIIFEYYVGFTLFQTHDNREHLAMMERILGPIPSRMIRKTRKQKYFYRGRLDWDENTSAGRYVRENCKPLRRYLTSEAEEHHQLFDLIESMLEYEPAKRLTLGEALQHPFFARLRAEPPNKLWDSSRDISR
Assay: KINOMEscan, CLK2
Type: binding
Conditions: CLK2; 1 µM; read-out: % of control at 1 µM
REPORTED METRIC: remaining binding at 1 µM (%)

COc1ncc(-c2ccc3nccc(-c4ccnnc4)c3c2)cc1NS(=O)(=O)c1ccc(F)cc1F [Omipalisib]	92
FC(F)c1nc2ccccc2n1-c1nc(N2CCOCC2)nc(N2CCOCC2)n1 [ZSTK474]	100
Cn1c(=O)n(-c2ccc(C(C)(C)C#N)cc2)c2c3cc(-c4cnc5ccccc5c4)ccc3ncc21 [Dactolisib]	81
Nc1cc(C(F)(F)F)c(-c2cc(N3CCOCC3)nc(N3CCOCC3)n2)cn1 [Buparlisib]	29

###

Target: panel of 442 kinases (Homo sapiens)
Construct: purchased Ambit Biosciences (scanMAXX KINOMEscan)
Assay: biochemical
Assay type: binding
Settings: AMPK-alpha2; 1 µM; read-out: % of control at 1 µM
Attribute: remaining activity at 1 µM
REPORTED METRIC: remaining activity at 1 µM (%)

FC(F)c1nc2ccccc2n1-c1nc(N2CCOCC2)nc(N2CCOCC2)n1	100
Nc1cc(C(F)(F)F)c(-c2cc(N3CCOCC3)nc(N3CCOCC3)n2)cn1	100
COc1ncc(-c2ccc3nccc(-c4ccnnc4)c3c2)cc1NS(=O)(=O)c1ccc(F)cc1F	99
Cn1c(=O)n(-c2ccc(C(C)(C)C#N)cc2)c2c3cc(-c4cnc5ccccc5c4)ccc3ncc21	100

###

Molecular target: panel of 442 kinases (Homo sapiens, UniProt Q02779)
Construct: purchased Ambit Biosciences (scanMAXX KINOMEscan)
Sequence (Q02779 whole entry): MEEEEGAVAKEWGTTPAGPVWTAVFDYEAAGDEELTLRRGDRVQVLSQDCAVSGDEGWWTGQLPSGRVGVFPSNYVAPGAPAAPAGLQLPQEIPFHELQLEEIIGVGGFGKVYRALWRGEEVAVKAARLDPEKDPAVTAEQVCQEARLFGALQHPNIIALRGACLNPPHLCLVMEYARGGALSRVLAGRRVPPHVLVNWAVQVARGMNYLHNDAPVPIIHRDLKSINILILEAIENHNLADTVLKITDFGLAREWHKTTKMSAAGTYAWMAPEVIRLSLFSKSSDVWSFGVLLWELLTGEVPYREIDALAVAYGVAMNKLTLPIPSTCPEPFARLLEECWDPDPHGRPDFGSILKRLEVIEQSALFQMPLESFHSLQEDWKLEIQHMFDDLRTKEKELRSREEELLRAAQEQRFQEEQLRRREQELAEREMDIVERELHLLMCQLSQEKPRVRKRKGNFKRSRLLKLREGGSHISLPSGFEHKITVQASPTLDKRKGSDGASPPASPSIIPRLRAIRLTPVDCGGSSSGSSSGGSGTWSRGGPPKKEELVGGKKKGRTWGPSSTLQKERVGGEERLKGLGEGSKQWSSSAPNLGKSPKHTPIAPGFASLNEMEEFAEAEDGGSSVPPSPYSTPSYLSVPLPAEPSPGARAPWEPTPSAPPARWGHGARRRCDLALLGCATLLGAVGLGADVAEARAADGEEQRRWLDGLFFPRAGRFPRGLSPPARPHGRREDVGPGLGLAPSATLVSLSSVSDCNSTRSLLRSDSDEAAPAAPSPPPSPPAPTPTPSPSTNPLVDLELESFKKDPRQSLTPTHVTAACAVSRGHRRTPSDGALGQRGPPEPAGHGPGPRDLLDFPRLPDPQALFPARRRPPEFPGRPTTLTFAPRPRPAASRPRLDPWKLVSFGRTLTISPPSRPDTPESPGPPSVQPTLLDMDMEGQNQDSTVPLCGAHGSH
Test: biochemical
Type: binding
Details: kinase MLK2; 1 µM; read-out: % of control at 1 µM
remaining activity at 1 µM by entry:
REPORTED METRIC: remaining activity at 1 µM (%)

FC(F)c1nc2ccccc2n1-c1nc(N2CCOCC2)nc(N2CCOCC2)n1 [ZSTK474]	100
Nc1cc(C(F)(F)F)c(-c2cc(N3CCOCC3)nc(N3CCOCC3)n2)cn1 [Buparlisib]	100
Cn1c(=O)n(-c2ccc(C(C)(C)C#N)cc2)c2c3cc(-c4cnc5ccccc5c4)ccc3ncc21 [Dactolisib]	100
COc1ncc(-c2ccc3nccc(-c4ccnnc4)c3c2)cc1NS(=O)(=O)c1ccc(F)cc1F [Omipalisib]	98

###

Molecular target: panel of 442 kinases (Homo sapiens, UniProt P43405)
Construct: purchased Ambit Biosciences (scanMAXX KINOMEscan)
Assay: biochemical
Format: binding
Conditions: kinase SYK; 1 µM; read-out: SYK (% of control at 1 µM)
REPORTED METRIC: remaining activity at 1 µM (%)

COc1ncc(-c2ccc3nccc(-c4ccnnc4)c3c2)cc1NS(=O)(=O)c1ccc(F)cc1F	100
Nc1cc(C(F)(F)F)c(-c2cc(N3CCOCC3)nc(N3CCOCC3)n2)cn1	98
Cn1c(=O)n(-c2ccc(C(C)(C)C#N)cc2)c2c3cc(-c4cnc5ccccc5c4)ccc3ncc21	100
FC(F)c1nc2ccccc2n1-c1nc(N2CCOCC2)nc(N2CCOCC2)n1	100

###

Molecular target: panel of 442 kinases (Homo sapiens, UniProt O43318)
Construct: purchased Ambit Biosciences (scanMAXX KINOMEscan)
Sequence (O43318 whole entry): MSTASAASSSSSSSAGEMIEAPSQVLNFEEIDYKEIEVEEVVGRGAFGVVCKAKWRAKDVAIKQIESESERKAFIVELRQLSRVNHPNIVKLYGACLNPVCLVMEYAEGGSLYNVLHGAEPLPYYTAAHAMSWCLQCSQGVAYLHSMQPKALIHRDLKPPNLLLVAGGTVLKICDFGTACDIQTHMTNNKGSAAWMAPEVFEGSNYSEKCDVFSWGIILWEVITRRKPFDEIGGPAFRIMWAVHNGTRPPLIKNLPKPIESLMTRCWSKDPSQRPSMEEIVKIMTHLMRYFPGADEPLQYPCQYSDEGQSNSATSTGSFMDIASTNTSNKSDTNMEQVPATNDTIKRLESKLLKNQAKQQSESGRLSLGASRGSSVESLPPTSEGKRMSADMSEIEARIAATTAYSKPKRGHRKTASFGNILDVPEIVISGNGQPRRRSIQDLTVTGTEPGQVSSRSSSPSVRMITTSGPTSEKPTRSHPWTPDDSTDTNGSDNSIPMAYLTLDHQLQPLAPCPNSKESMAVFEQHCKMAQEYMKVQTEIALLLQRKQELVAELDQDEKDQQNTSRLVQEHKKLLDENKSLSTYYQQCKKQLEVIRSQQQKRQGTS
Test: biochemical
Format: binding
Conditions: kinase TAK1; 1 µM; read-out: TAK1 (% of control at 1 µM)
# key: entry, value: remaining activity at 1 µM
REPORTED METRIC: remaining activity at 1 µM (%)

COc1ncc(-c2ccc3nccc(-c4ccnnc4)c3c2)cc1NS(=O)(=O)c1ccc(F)cc1F [Omipalisib]	82
Nc1cc(C(F)(F)F)c(-c2cc(N3CCOCC3)nc(N3CCOCC3)n2)cn1 [Buparlisib]	100
FC(F)c1nc2ccccc2n1-c1nc(N2CCOCC2)nc(N2CCOCC2)n1 [ZSTK474]	68
Cn1c(=O)n(-c2ccc(C(C)(C)C#N)cc2)c2c3cc(-c4cnc5ccccc5c4)ccc3ncc21 [Dactolisib]	55

###

Target: panel of 442 kinases (Homo sapiens, UniProt Q86YV6)
Construct: purchased Ambit Biosciences (scanMAXX KINOMEscan)
Sequence (Q86YV6 1-388): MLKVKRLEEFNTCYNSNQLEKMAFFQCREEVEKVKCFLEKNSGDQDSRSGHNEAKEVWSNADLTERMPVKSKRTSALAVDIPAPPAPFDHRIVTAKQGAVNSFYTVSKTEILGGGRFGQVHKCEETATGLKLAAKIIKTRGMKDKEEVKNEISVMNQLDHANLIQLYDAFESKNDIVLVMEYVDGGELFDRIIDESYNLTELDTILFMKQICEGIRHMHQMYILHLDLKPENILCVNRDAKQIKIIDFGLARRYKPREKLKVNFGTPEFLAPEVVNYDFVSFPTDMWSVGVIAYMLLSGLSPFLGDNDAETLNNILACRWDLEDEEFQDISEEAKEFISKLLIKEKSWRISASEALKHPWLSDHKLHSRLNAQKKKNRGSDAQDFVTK
Test: biochemical
Format: binding
Settings: kinase MYLK4; 1 µM; read-out: % of control at 1 µM
REPORTED METRIC: remaining activity at 1 µM (%)

Cn1c(=O)n(-c2ccc(C(C)(C)C#N)cc2)c2c3cc(-c4cnc5ccccc5c4)ccc3ncc21 [Dactolisib]	95
FC(F)c1nc2ccccc2n1-c1nc(N2CCOCC2)nc(N2CCOCC2)n1 [ZSTK474]	100
COc1ncc(-c2ccc3nccc(-c4ccnnc4)c3c2)cc1NS(=O)(=O)c1ccc(F)cc1F [Omipalisib]	84
Nc1cc(C(F)(F)F)c(-c2cc(N3CCOCC3)nc(N3CCOCC3)n2)cn1 [Buparlisib]	100
